Data provenance is PubChem BioAssay AID1159580.

experimental_protocol: chemical genetic growth profiling, strain panel (AID 1159580);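 further: tested at 20 µM; growth read once vehicle control cultures reached saturation at 30 °C; 1 = growth at the plate median or of vehicle wells; lower values mean less growth of the strain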
applied_conditions: S. cerevisiae deletion strains, growth OD, locus YOR083W, strain WHI5, stronger effect = lower value
Among all 5,500 compounds or so, about 2,000 (36%) were called active. Inconclusive results (about 18%) are left out. The list shows a part of the results.
I'd be grateful if you could share measured normalized growth for these entries.
// return a plain number; no unit text

Request: // returns reported normalized growth for input "CCNc1nc(Cl)nc(NC(C)C)n1"
Result: 1

Request: // returns reported normalized growth for input "CC(C)=CCOc1cc2oc(=O)ccc2cc1O"
Result: 0.977

Request: // returns reported normalized growth for input "CC(C)=CCOc1c2occc2cc2ccc(=O)oc12"
Result: 0.86

Request: // returns reported normalized growth for input "O=c1ccc2cc(O[C@@H]3O[C@H](CO)[C@@H](O)[C@H](O)[C@H]3O)c(O)cc2o1"
Result: 0.981

Request: // returns reported normalized growth for input "Cc1cccc(N(C)C(=S)Oc2ccc3ccccc3c2)c1"
Result: 0.947

Request: // returns reported normalized growth for input "CCCCCN=C(N)N/N=C\c1c[nH]c2ccc(OC)cc12"
Result: 0.991

Request: // returns reported normalized growth for input Cn1nnnc1SCC1=C(C(=O)O)N2C(=O)C(NC(=O)C(OC=O)c3ccccc3)C2SC1 (configuration not stated)
Result: 1.01

Request: // returns reported normalized growth for input CC(C)(O)CC[C@@H](O)[C@](C)(O)C1CC[C@@]2(O)C3=CC(=O)C4C[C@@H](O)[C@@H](O)C[C@]4(C)C3CC[C@]12C (some centres not stated)
Result: 1.01

Request: // returns reported normalized growth for input "CC1(C)C[C@@H]2C(=O)CC[C@H]3O[C@]3(C)CC[C@H]21"
Result: 1.01

Request: // returns reported normalized growth for input "CCCc1nc(C(C)(C)O)c(C(=O)OCc2oc(=O)oc2C)n1Cc1ccc(-c2ccccc2-c2nn[nH]n2)cc1"
Result: 0.993

Request: // returns reported normalized growth for input CC(C)CCCC(C)[C@H]1CCC2C3CC[C@H]4CC(=O)CC[C@]4(C)C3CC[C@@]21C (some centres not stated)
Result: 0.952

Request: // returns reported normalized growth for input C[N+]1(C)C2CC[C@H]1CC(OC(=O)C(O)c1ccccc1)C2 (some centres not stated)
Result: 1

Request: // returns reported normalized growth for input CCOc1nc2cccc(C(=O)OC(C)OC(=O)OC3CCCCC3)c2n1Cc1ccc(-c2ccccc2-c2nn[nH]n2)cc1 (configuration not stated)
Result: 1.01

Request: // returns reported normalized growth for input "O=c1[nH]cnc2nc[nH]c12"
Result: 1.01

Request: // returns reported normalized growth for input C[C@]12CCC3C(CC[C@H]4CC(=O)CC[C@]34C)C1CCC2=O (some centres not stated)
Result: 0.904

Request: // returns reported normalized growth for input "COc1c2occc2cc2ccc(=O)oc12"
Result: 0.914

Request: // returns reported normalized growth for input "c1coc(CNc2ncnc3nc[nH]c23)c1"
Result: 1

###

experimental_protocol: chemical genetic growth profiling, strain panel (AID 1159580);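 further: tested at 20 µM; growth read once vehicle control cultures reached saturation at 30 °C; 1 = growth at the plate median or of vehicle wells; lower values mean less growth of the strain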
applied_conditions: S. cerevisiae deletion strains, growth OD, locus YHR142W, strain chs7
The whole screen tested about 5,500 compounds, of which about 2,000 (36%) were called active. About 18% were inconclusive and are not listed. Cut-off read from the data, not from the text of the source: active = normalized growth mostly below about 0.91 (no sharp cut-off); inconclusive = no clear call, values can overlap the other calls; inactive = mostly above about 0.92. This is one part of the list.
Hello, when you answer, please use one of the following outcomes: active, inactive

Request: Call for entry "COc1ccc2[nH]cc(CCNC(C)=O)c2c1" :
Result: inactive

Request: Call for entry CC(C)CCCC(C)[C@H]1CCC2C3CC[C@H]4CC(=O)CC[C@]4(C)C3CC[C@@]21C (stereo not given in full) :
Result: inactive

Request: Call for entry CC1=C2CCC3C(CC[C@]4(C)C(=O)CCC34)[C@@]2(C)CCC1=O (stereo not given in full) :
Result: inactive

Request: Call for entry "Cc1ncc([N+](=O)[O-])n1CCO" :
Result: inactive

Request: Call for entry C[C@]12CCC3C(CC[C@H]4CC(=O)CC[C@]34C)C1CCC2=O (stereo not given in full) :
Result: active

Request: Call for entry COC(=O)C[C@H]1C(C)(C)[C@@H](OC(C)=O)[C@@H]2CC3C4CC(=O)O[C@@H](c5ccoc5)[C@]4(C)CCC3[C@@]1(C)C2=O (stereo not given in full) :
Result: inactive

Request: Call for entry "Fc1ccc(C(c2ccc(F)cc2)N2CCN(C/C=C/c3ccccc3)CC2)cc1" :
Result: active

Request: Call for entry "CCCc1nc(C(C)(C)O)c(C(=O)OCc2oc(=O)oc2C)n1Cc1ccc(-c2ccccc2-c2nn[nH]n2)cc1" :
Result: inactive

Request: Call for entry C[C@]12CCC3C(CC[C@H]4C[C@@H](O)CC[C@]34C)C1CCC2=O (stereo not given in full) :
Result: active

Request: Call for entry "Cn1c([N+](=O)[O-])cnc1COC(N)=O" :
Result: inactive

###

experimental_protocol: chemical genetic growth profiling, strain panel (AID 1159580);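 further: tested at 20 µM; growth read once vehicle control cultures reached saturation at 30 °C; 1 = growth at the plate median or of vehicle wells; lower values mean less growth of the strain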
applied_conditions: S. cerevisiae deletion strains, growth OD, locus YMR125W, strain sto1, stronger effect = lower value
The campaign covered roughly 5,500 compounds. About 2,000 (36%) were called active. Roughly 18% stayed inconclusive and do not appear here. Some of the results follow.
attribute_measured: normalized growth
// return a plain number; no unit text

Request: // returns reported normalized growth for input "COc1ccc2[nH]cc(CCNC(C)=O)c2c1"
Result: 0.956

Request: // returns reported normalized growth for input "Cc1nccc2c1[nH]c1ccccc12"
Result: 1.02

Request: // returns reported normalized growth for input "COc1c(O)cc(O)cc1O"
Result: 0.992

Request: // returns reported normalized growth for input "CNC(=O)CSP(=S)(OC)OC"
Result: 1.02

Request: // returns reported normalized growth for input "CC(=O)c1ccc2c(c1)N(CCCN(C)C)c1ccccc1S2"
Result: 1.02

Request: // returns reported normalized growth for input O=C1OC(=O)C2C3CCC(O3)C12 (stereo not given)
Result: 1.01

Request: // returns reported normalized growth for input "N#Cc1ccc2c(c1)N(CCCN1CCC(O)CC1)c1ccccc1S2"
Result: 0.966

Request: // returns reported normalized growth for input "Nc1ncnc2c1ncn2[C@@H]1O[C@H](CO)[C@@H](O)[C@@H]1O"
Result: 1.01

Request: // returns reported normalized growth for input "O=c1cc(-c2ccc(O)cc2)oc2cc(O[C@@H]3O[C@H](CO)[C@@H](O)[C@H](O)[C@H]3O[C@@H]3OC[C@](O)(CO)[C@H]3O)cc(O)c12"
Result: 0.992

Request: // returns reported normalized growth for input "Cn1cnc([N+](=O)[O-])c1Sc1ncnc2nc[nH]c12"
Result: 1.01

Request: // returns reported normalized growth for input CC(=O)OCC(=O)[C@@]1(O)CCC2C3CCC4=CC(=O)CC[C@]4(C)[C@@]3(F)[C@@H](O)C[C@@]21C (stereo not given in full)
Result: 1.01

Request: // returns reported normalized growth for input "COc1ccc2c(c1)[nH]c1c(C)nccc12"
Result: 0.975

Request: // returns reported normalized growth for input "Cc1cc(O)c2c(c1O)C(=O)c1c(O)cc(C)c(O)c1C2=O"
Result: 0.99

Request: // returns reported normalized growth for input "C=C(C)c1cc2cc(C(C)=O)c(O)cc2o1"
Result: 0.982

Request: // returns reported normalized growth for input "O=C1c2ccccc2C(=O)c2c1ccc(O)c2O"
Result: 0.773

Request: // returns reported normalized growth for input COC(=O)C[C@H]1C(C)(C)[C@@H](OC(C)=O)[C@@H]2CC3C4CC(=O)O[C@@H](c5ccoc5)[C@]4(C)CCC3[C@@]1(C)C2=O (stereo not given in full)
Result: 1.01

Request: // returns reported normalized growth for input "CC1(C)S[C@@H]2[C@H](NC(=O)COc3ccccc3)C(=O)N2[C@H]1C(=O)O"
Result: 1.01

Request: // returns reported normalized growth for input "NCCS"
Result: 0.968

Request: // returns reported normalized growth for input "Cc1cc(C)nc(NS(=O)(=O)c2ccc(N)cc2)n1"
Result: 0.947

Request: // returns reported normalized growth for input "COc1c2occc2cc2ccc(=O)oc12"
Result: 1.01

Request: // returns reported normalized growth for input "COc1cc(O)c(C)c(O)c1"
Result: 1.04

Request: // returns reported normalized growth for input CC(C(=O)O)c1ccc(N2Cc3ccccc3C2=O)cc1 (stereo not given)
Result: 0.973

Request: // returns reported normalized growth for input CC(=O)OC1CCC23C(=O)OC45CCC(C6=CC(=O)OC6)C4(C)CCC2C5CCC3(O)C1 (stereo not given)
Result: 0.992

Request: // returns reported normalized growth for input "COc1cc(OC)c(C(C)=O)c(O)c1C"
Result: 0.984

Request: // returns reported normalized growth for input "COP(=S)(OC)SCn1nnc2ccccc2c1=O"
Result: 1.01
